Hey, just so you know, these numbers are from patent US6541220.

Biological target: T1, zebrafish PTH3R receptor, transiently expressed in COS-7 cells (zebrafish (Danio rerio))
T1 construct: Full-length cDNA expressed on intact COS-7 cells; also called zPTH3R; zPPR3
T1 chain: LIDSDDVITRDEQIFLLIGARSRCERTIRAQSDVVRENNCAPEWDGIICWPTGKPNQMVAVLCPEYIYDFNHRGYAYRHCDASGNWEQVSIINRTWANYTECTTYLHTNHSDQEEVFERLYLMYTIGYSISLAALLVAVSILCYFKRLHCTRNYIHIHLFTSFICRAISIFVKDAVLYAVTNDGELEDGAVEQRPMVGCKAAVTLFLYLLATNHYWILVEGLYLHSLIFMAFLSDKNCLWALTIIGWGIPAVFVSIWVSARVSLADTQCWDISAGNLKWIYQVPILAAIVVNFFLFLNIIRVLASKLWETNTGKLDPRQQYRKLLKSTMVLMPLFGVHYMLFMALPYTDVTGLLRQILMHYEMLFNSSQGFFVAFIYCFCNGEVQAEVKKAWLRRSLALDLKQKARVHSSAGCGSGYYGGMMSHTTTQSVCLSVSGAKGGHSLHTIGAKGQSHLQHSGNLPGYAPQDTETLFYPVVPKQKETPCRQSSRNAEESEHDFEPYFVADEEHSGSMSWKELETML
Test: competitive radioligand binding on intact COS-7 cells expressing the receptor, room temperature; unlabeled hPTH, radioligand not clearly stated (125I-rPTH or 125I-PTHrP)
Procedure: Peptides were synthesized by the MGH polymer core facility as described (Gardella et al., (1996)). Specific binding was calculated by subtracting radioligand binding in the presence of excess unlabeled peptide from the total binding. All points represent mean±S.E.M. of two to three replicates from two or more independent experiments. Table 3. […] ND, not determined.
No end group written: not given here.
observation type: IC50

// query Return reported IC50; argument: SVSEIQLMHNLGKHLNSMERVEWLRKKLQDVHNY-NH2 (Synthetic analog of human PTH(1-34) with Tyr at 34) [[Tyr34]hPTH(1-34)amide]
// result ~100 nM
